Assayed System: T1, MBP-fused PDZ domain of SYNJ2BP (human, UniProt P57105 13-100)
T1 sequence (looked up): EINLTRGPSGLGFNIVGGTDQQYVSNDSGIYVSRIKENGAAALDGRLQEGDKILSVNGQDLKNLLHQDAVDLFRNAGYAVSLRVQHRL
Test: fluorescence polarisation
Where no end group is shown, it is not given here.
The binders listed here are annotated with their Kd.

Binder: KLPSTTL (peptide, UniProt Q15418 729-735, looked up, phosphorylated; fluorescein labeled) [fluorescein labeled RSK1 729-735 peptide, phosphorylated]
Units: µM
Kd: 16

Binder: KLPSTTL (peptide, UniProt Q15418 729-735, looked up, also: fluorescein labeled, site not given here) [fluorescein labeled RSK1 729-735 peptide, unphosphorylated]
Units: µM
Kd: 39
